In this section we review reported glycan array binding signal (z-score) values for a set of binders.
TARGET DESC: Gal(b1-4)Gal
ASSAY PROTOCOL: glycan array binding signal (z-score within array); higher = stronger binding
ASSAY SETUP: glycan notation: IUPAC condensed, linker removed
The entries come from a sample that favours the strongest signals as a whole.
ATTRIBUTE MEASURED: glycan array binding signal (z-score)

>>> value_reported("EUL D1A second (Oryza sativa) (protein) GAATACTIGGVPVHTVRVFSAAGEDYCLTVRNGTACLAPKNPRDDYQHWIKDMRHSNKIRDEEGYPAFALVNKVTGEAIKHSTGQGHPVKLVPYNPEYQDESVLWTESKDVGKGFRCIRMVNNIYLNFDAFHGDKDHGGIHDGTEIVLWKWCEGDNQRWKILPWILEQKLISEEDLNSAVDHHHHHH")
3.37
>>> value_reported("Lb MiSSP8 (Laccaria bicolor) (protein) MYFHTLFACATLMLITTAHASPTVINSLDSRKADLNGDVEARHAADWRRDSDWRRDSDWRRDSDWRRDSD")
-3.19
>>> value_reported("Arath Fbox LD (Arabidopsis thaliana) (protein) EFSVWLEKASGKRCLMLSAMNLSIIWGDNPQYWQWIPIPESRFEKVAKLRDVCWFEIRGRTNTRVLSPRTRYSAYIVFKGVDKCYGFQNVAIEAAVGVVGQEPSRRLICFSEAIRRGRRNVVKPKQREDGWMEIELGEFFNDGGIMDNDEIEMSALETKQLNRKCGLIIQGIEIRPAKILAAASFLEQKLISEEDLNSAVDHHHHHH")
1.31
>>> value_reported("CAA (Caragana arborescens) (protein) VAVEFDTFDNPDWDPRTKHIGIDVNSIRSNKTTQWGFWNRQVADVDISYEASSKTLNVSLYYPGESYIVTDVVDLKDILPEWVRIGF")
-0.24
